The origin of these recorded values is ChEMBL document CHEMBL4265871.

# measurement protocol: Selectivity index, ratio of […] for toxicity in human BEAS2B cells to MIC50 for antifungal activity against Aspergillus flavus ATCC MYA-3631
# Assay type: cell-based
# measurement conditions: BEAS-2B cells, read-out: Selectivity Index
observable: selectivity ratio
Numbers only.

compound="CCCCC(O)(Cn1cncn1)c1ccc(Cl)cc1Cl (stereo not drawn) [HEXACONAZOLE]" observable="selectivity ratio" reported_result=8
compound="CCCCCCC(O)(Cn1cncn1)c1ccc(Cl)cc1 (stereo not drawn)" observable="selectivity ratio" reported_result=1

Below are 5 compounds. Give each one its selectivity ratio.
1. CCCCCC(O)(Cn1cncn1)c1ccc(F)cc1F (stereo not drawn)
2. CCCCCC(O)(Cn1cncn1)c1ccc(Cl)cc1Cl (stereo not drawn)
3. CCCCCC(O)(Cn1cncn1)c1ccccc1F (stereo not drawn)
4. CCCCC(O)(Cn1cncn1)c1ccc(F)cc1F (stereo not drawn)
5. CCCCCCC(O)(Cn1cncn1)c1ccc(F)cc1 (stereo not drawn)

1. 2
2. 8
3. 4
4. 2
5. 1

Below are 4 compounds. Give each one its selectivity ratio.
1. CCCCCCCCC(O)(Cn1cncn1)c1ccc(F)cc1F (stereo not drawn)
2. CCCCCCC(O)(Cn1cncn1)c1ccc(F)cc1F (stereo not drawn)
3. CCCCCC(O)(Cn1cncn1)c1ccc(F)cc1 (stereo not drawn)
4. CCCC(O)(Cn1cncn1)c1ccc(Cl)cc1Cl (stereo not drawn)

1: 0.4; 2: 2; 3: 1; 4: 2

---

Can you tell me selectivity ratio for the items I'm about to list?
# measurement protocol: Selectivity index, ratio of EC50 for toxicity in human BEAS2B cells to MIC50 for antifungal activity against ITC and FLC-resistant Candida albicans ATCC 1237
# Format: cell-based
# measurement conditions: BEAS-2B cells, read-out: Selectivity Index
Give bare numbers.

Recorded selectivity ratio, per entry:
compound="CCCCC(O)(Cn1cncn1)c1ccc(Cl)cc1Cl (stereo not given)" observable="selectivity ratio" reported_result=4
compound="CCCCCCC(O)(Cn1cncn1)c1ccccc1F (stereo not given)" observable="selectivity ratio" reported_result=32
compound="CCCCCC(O)(Cn1cncn1)c1ccccc1Cl (stereo not given)" observable="selectivity ratio" reported_result=32
compound="CCCCCC(O)(Cn1cncn1)c1ccc(Cl)cc1Cl (stereo not given)" observable="selectivity ratio" reported_result=16

Field: next compound
Give the measured selectivity ratio of CCCCCCC(O)(Cn1cncn1)c1ccc(F)cc1 (stereo not given) . 1

---

Can you tell me EC50 at 24 h for the items I'm about to list?
# measurement protocol: Toxicity in human A549 cells assessed as reduction in cell viability incubated for 24 hrs by resazurin dye based assay
Answers are plain numbers, in µg/mL.

Below are 5 compounds. Give each one its EC50 at 24 h.
1. CCCCCCCCC(O)(Cn1cncn1)c1ccc(F)cc1F (stereo unspecified)
2. CCCCCC(O)(Cn1cncn1)c1ccccc1F (stereo unspecified)
3. CCCCCC(O)(Cn1cncn1)c1ccc(Cl)cc1Cl (stereo unspecified)
4. CC[C@@H]([C@H](C)O)n1ncn(-c2ccc(N3CCN(c4ccc(OC[C@@H]5CO[C@@](Cn6cncn6)(c6ccc(F)cc6F)C5)cc4)CC3)cc2)c1=O
5. CCCCCCC(O)(Cn1cncn1)c1ccc(Cl)cc1 (stereo unspecified)

1. 12
2. 37
3. 33
4. 37
5. 38

---

# measurement protocol: Selectivity index, ratio of EC50 for toxicity in human BEAS2B cells to MIC50 for antifungal activity against Candida glabrata ATCC 2001
# Assay type: cell-based
# measurement conditions: BEAS-2B cells, read-out: Selectivity Index
Entries whose selectivity ratio is below 8 take t; entries at or above 8 take f.

compound="CCCCCC(O)(Cn1cncn1)c1ccc(F)cc1 (configuration not stated)" class_assignment=t
compound="CCCCCCC(O)(Cn1cncn1)c1ccc(Cl)cc1 (configuration not stated)" class_assignment=t
compound="CCCCCC(O)(Cn1cncn1)c1ccc(Cl)cc1Cl (configuration not stated)" class_assignment=f

Hi there! Is selectivity ratio for CCCCCC(O)(Cn1cncn1)c1ccccc1Cl (configuration not stated) below 8, do you know? f

What about this compound? CCCCCCC(O)(Cn1cncn1)c1ccc(F)cc1 (configuration not stated) t

What about this compound? CCCCC(O)(Cn1cncn1)c1ccc(F)cc1F (configuration not stated) t

---

Can you tell me EC50 at 24 h for the items I'm about to list?
# measurement protocol: Toxicity in human BEAS2B cells assessed as reduction in cell viability incubated for 24 hrs by resazurin dye based assay
# measurement conditions: BEAS-2B cells

compound=CC[C@@H]([C@H](C)O)n1ncn(-c2ccc(N3CCN(c4ccc(OC[C@@H]5CO[C@@](Cn6cncn6)(c6ccc(F)cc6F)C5)cc4)CC3)cc2)c1=O observable="EC50 at 24 h" reported_result="26 µg/mL"
compound="CCCCC(O)(Cn1cncn1)c1ccc(F)cc1F (stereo unspecified)" observable="EC50 at 24 h" reported_result="36 µg/mL"
compound="CCCCCCC(O)(Cn1cncn1)c1ccccc1Cl (stereo unspecified)" observable="EC50 at 24 h" reported_result="> 31.3 µg/mL"
compound="CCCCCC(O)(Cn1cncn1)c1ccccc1F (stereo unspecified)" observable="EC50 at 24 h" reported_result="> 31.3 µg/mL"
compound=OC(Cn1cncn1)(Cn1cncn1)c1ccc(F)cc1F observable="EC50 at 24 h" reported_result="> 62.5 µg/mL"

Below are 6 compounds. Give each one its EC50 at 24 h.
1. CCCCCC(O)(Cn1cncn1)c1ccc(Cl)cc1 (stereo unspecified)
2. CCCC(O)(Cn1cncn1)c1ccc(Cl)cc1Cl (stereo unspecified)
3. CCCCCC(O)(Cn1cncn1)c1ccc(Cl)cc1Cl (stereo unspecified)
4. CCCCCCC(O)(Cn1cncn1)c1ccc(Cl)cc1 (stereo unspecified)
5. CCCCCCC(O)(Cn1cncn1)c1ccc(F)cc1 (stereo unspecified)
6. CCCCCCC(O)(Cn1cncn1)c1ccccc1F (stereo unspecified)

> 31.3 µg/mL
> 31.3 µg/mL
> 31.3 µg/mL
> 31.3 µg/mL
> 31.3 µg/mL
> 31.3 µg/mL

---

Can you tell me hemolysis at 1 h, 125 ug/ml for the items I'm about to list?
# measurement protocol: Hemolytic activity in mouse erythrocytes assessed as hemolysis level at 125 ug/ml incubated for 1 hr at 37 degC
# Format: ADME, cell-based, Erythrocyte
# measurement conditions: read-out: Activity
Give bare numbers, in %.

Recorded hemolysis at 1 h, 125 ug/ml, per entry:
compound=OC(Cn1cncn1)(Cn1cncn1)c1ccc(F)cc1F reported_result=13.4
compound="CCCCCC(O)(Cn1cncn1)c1ccccc1Cl (centres undefined)" reported_result=81
compound="CCCCCCC(O)(Cn1cncn1)c1ccc(Cl)cc1Cl (centres undefined)" reported_result=105
compound="CCCCCCC(O)(Cn1cncn1)c1ccc(Cl)cc1 (centres undefined)" reported_result=102
compound="CCCCCC(O)(Cn1cncn1)c1ccccc1F (centres undefined)" reported_result=20.7
compound="CCCCC(O)(Cn1cncn1)c1ccc(Cl)cc1Cl (centres undefined)" reported_result=100
compound="CCCCCCC(O)(Cn1cncn1)c1ccc(F)cc1F (centres undefined)" reported_result=60.9
compound=C[C@@H]1[C@H](O)[C@@H](C)/C=C/C=C/C=C/C=C/C=C/C=C/C=C/[C@H](O[C@@H]2O[C@H](C)[C@@H](O)[C@H](N)[C@@H]2O)C[C@@H]2O[C@](O)(C[C@@H](O)C[C@@H](O)[C@H](O)CC[C@@H](O)C[C@@H](O)CC(=O)O[C@H]1C)C[C@H](O)[C@H]2C(=O)O reported_result=92.6

Field: next compound
Give the measured hemolysis at 1 h, 125 ug/ml of CCCCCC(O)(Cn1cncn1)c1ccc(F)cc1F (centres undefined) . 45.4

---

Can you tell me selectivity ratio for the items I'm about to list?
# measurement protocol: Selectivity index, ratio of EC50 for toxicity in human A549 cells to MIC50 for antifungal activity against Candida albicans ATCC 64124
# Format: cell-based
# measurement conditions: read-out: Selectivity Index
Give bare numbers.

compound="CCCCCCC(O)(Cn1cncn1)c1ccc(Cl)cc1Cl (stereo unspecified)" observable="selectivity ratio" reported_result=10
compound="CCCC(O)(Cn1cncn1)c1ccc(Cl)cc1Cl (stereo unspecified)" observable="selectivity ratio" reported_result=8
compound="CCCCCCC(O)(Cn1cncn1)c1ccc(F)cc1F (stereo unspecified)" observable="selectivity ratio" reported_result=4
compound="CCCCCCC(O)(Cn1cncn1)c1ccc(Cl)cc1 (stereo unspecified)" observable="selectivity ratio" reported_result=1

Below are 4 compounds. Give each one its selectivity ratio.
1. CCCCCC(O)(Cn1cncn1)c1ccc(Cl)cc1Cl (stereo unspecified)
2. CCCCCCC(O)(Cn1cncn1)c1ccccc1Cl (stereo unspecified)
3. CCCCC(O)(Cn1cncn1)c1ccc(Cl)cc1Cl (stereo unspecified)
4. CC[C@@H]([C@H](C)O)n1ncn(-c2ccc(N3CCN(c4ccc(OC[C@@H]5CO[C@@](Cn6cncn6)(c6ccc(F)cc6F)C5)cc4)CC3)cc2)c1=O

1. 17
2. 1
3. 8
4. 1
